Every entry's value here was drawn from patent US9359372B2.

Test system 5-HT1A receptor (Homo sapiens (Human), UniProt P08908), IC50 listed for each of the compounds.
Report only the number, with the unit nM understood.

Sample records with IC50:
{"columns": ["Chemical Smiles", "IC50, nM"],
 "data": [
  ["COc1cc2c(c(OC)c1)CN1CCc3cc(OC)c(OC)cc3[C@@H]1C2", 922],
  ["COc1ccc(OC)c2c1C[C@H]1c3cc4c(cc3CCN1C2)OCCO4", 51.5]
]}

Let us examine a further case.
Memo: COc1cc2c(cc1O)[C@@H]1Cc3c(OC)ccc(OC)c3CN1CC2 , reported IC50: 626

====

Catalogue of D2 receptor inhibition ratio (%) readings, one per entry.
Tgt: D2 dopamine receptor (Rattus norvegicus (Rat), UniProt P61169)
Sequence (P61169 whole entry): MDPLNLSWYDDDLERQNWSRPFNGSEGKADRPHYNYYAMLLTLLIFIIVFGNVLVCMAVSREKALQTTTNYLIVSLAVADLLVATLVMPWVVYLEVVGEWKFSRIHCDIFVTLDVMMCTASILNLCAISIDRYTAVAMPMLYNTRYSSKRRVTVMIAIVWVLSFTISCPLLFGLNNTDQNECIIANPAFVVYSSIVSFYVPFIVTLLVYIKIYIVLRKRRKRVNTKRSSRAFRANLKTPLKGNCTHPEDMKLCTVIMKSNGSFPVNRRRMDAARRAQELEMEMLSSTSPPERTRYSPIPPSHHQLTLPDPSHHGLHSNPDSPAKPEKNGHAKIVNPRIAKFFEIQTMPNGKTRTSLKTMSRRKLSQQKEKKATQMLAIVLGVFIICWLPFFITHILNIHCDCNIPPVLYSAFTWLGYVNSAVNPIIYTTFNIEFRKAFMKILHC
Procedure Details: Affinity on dopamine D2 receptor, competition with [3H] Spiperone
Format: binding
Parameters: concentration or dose not given beside the values
Report only the number, with the unit % understood.

Sample records with D2 receptor inhibition ratio (%):
{"columns": ["Molecule", "Tgt", "Units", "D2 receptor inhibition ratio (%)"],
 "data": [
  ["COc1cc2c(cc1OC)[C@@H]1Cc3cc(OC)c(OC)c(OC)c3[C@H](C)N1CC2", "D2 dopamine receptor (Rattus norvegicus (Rat), UniProt P61169)", "%", 65.3],
  ["COc1c(O)ccc2c1CN1CCc3cc4c(cc3[C@@H]1C2)OCCO4", "D2 dopamine receptor (Rattus norvegicus (Rat), UniProt P61169)", "%", 63.94],
  ["COc1cc2c(cc1OC)CN1CCc3cc4c(cc3[C@@H]1C2)OCO4", "D2 dopamine receptor (Rattus norvegicus (Rat), UniProt P61169)", "%", 59.3]
]}

Let us examine a further case.
Memo: COc1cc2c(cc1OC)C1Cc3cc(OC)c(OC)c(OC)c3CN1CC2 (racemic) , reported D2 receptor inhibition ratio (%): 27.05

====

Catalogue of D1 receptor inhibition ratio (%) readings, one per entry.
Tgt: dopamine D1 receptor (Macaca mulatta (Rhesus macaque))
Sequence (O77680 whole entry): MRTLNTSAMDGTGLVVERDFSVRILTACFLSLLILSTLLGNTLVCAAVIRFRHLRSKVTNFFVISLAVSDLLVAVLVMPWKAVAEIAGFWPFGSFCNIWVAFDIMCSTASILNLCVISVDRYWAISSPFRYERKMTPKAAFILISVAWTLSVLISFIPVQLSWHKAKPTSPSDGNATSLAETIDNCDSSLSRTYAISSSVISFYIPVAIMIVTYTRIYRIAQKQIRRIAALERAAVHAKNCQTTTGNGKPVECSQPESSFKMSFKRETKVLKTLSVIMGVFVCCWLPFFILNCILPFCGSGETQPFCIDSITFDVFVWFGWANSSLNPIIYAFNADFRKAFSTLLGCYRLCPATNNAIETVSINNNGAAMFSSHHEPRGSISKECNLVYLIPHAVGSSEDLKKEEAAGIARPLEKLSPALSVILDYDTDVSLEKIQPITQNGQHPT
Procedure Details: Affinity on dopamine D1 receptor, competition with [3H] SCH23390
Format: binding
Design: concentration or dose not given beside the values
Report only the number, with the unit % understood.

Sample records with D1 receptor inhibition ratio (%):
{"columns": ["Compound", "D1 receptor inhibition ratio (%)"],
 "data": [
  ["COc1cc2c(cc1OC)[C@@H]1Cc3cc4c(cc3[C@H](C)N1CC2)OCO4 [DC037020]", 47.3],
  ["COc1cc2c(cc1OC)CN1CCc3cc(O)c(O)cc3C1C2 (racemic) [DC037024]", 91.3]
]}

Measured D1 receptor inhibition ratio (%) for this entry COc1ccc(OC)c2c1C[C@H]1c3cc4c(cc3CCN1C2)OCCO4 [DC037032] on dopamine D1 receptor (Macaca mulatta (Rhesus macaque)): 99.21

====

Tgt: dopamine D2 receptor (Homo sapiens (Human))
Sequence (P14416 whole entry, species assumed): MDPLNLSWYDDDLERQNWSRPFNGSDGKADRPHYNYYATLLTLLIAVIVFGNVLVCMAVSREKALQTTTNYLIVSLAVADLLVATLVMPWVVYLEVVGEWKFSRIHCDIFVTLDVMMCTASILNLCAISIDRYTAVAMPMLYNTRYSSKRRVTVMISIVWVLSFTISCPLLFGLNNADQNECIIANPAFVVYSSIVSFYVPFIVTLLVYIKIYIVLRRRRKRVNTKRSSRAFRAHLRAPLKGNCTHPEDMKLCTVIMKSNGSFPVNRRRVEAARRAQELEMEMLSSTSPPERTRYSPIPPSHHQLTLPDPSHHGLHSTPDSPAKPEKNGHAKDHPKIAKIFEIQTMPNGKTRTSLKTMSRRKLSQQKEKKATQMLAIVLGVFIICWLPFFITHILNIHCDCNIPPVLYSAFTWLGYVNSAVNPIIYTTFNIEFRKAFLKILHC
Procedure Details: Radioligand binding assay, D2 receptor, HEK293T membrane homogenates
Condition Parameters: HEK293T membranes, [3H]Spiperone
Measurement Name: Ki (nM)
Report only the number, with the unit nM understood.

{"columns": ["Compound", "Tgt", "Assay Result"],
 "data": [
  ["COc1cc2c(cc1O)[C@@H]1Cc3cc(C)cc(C)c3CN1CC2 [DC037031]", "dopamine D2 receptor (Homo sapiens (Human))", 161]
]}

Measured Ki for this entry COc1c(O)ccc2c1CN1CCc3cc4c(cc3[C@@H]1C2)OCC4 [DC037081] on dopamine D2 receptor (Homo sapiens (Human)): 147
